The reported measurements were obtained from ChEMBL document CHEMBL2218924.

# residual activity values compiled below
target: Glycogen synthase kinase-3 beta (Homo sapiens); settings: at 1 µM
Write down the numeric answer in % and omit the unit.

{"columns": ["smiles_string", "residual activity / %"],
 "data": [
  ["O=C1NC(=O)c2cc(Nc3ccc(F)cc3)c(Nc3ccc(F)cc3)cc21", 69],
  ["O=[N+]([O-])c1ccc(-c2nc(-c3ccc(F)cc3)c(-c3ccncc3)[nH]2)cc1", 73],
  ["NC(=O)c1ccc2[nH]c(-c3ccc(Oc4ccc(Cl)cc4)cc3)nc2c1", 105]
]}

Supply residual activity measured with Glycogen synthase kinase-3 beta (Homo sapiens) for "O=C1NC(=O)c2c1c1c3ccccc3[nH]c1c1[nH]c3cc(Br)ccc3c21" . 103
